Experiment: Cytotoxicity against HFF cells
Type: cell-based
Conditions: human
Below, each entry is listed with its recorded CC50.

Answered cases to consult:
>>> measured_result("Nc1ncc(F)c2c1ncn2[C@@H]1C[C@H](O)[C@@H](O)[C@H]1O")
"> 300 µM"
>>> measured_result("Nc1ncc(F)c2c1ncn2[C@@H]1C[C@H](CCO)[C@@H](O)[C@H]1O")
"> 264 µM"

Exercise: Endpoint output: CC50 of Nc1ncc(F)c2c1ncn2[C@@H]1C[C@H](CO)[C@@H](O)[C@H]1O . Value?
Key: > 178 µM
